Test system: 521955-158-R2-J5-PDC complex spheroid growth
Procedure text: Anticancer human tumor 521955-158-R2-J5-PDC patient-derived pancreatic carcinoma cell line growth inhibition [AhR]
Applied conditions: second compound 10 µM; first compound 0.1 µM; stronger effect = lower value
Reported endpoint: viability, T/C (%)
All answers are understood in %, so give the number only.

Examples from the recorded data:
Nc1ccn(C2OC(CO)C(O)C2(F)F)c(=O)n1 (configuration not stated) + CC(CO)NC(=O)c1cc(-c2ccc(Cl)cc2)nn(-c2cnn(C)c2)c1=O | 54.5
COc1ccc([C@@H](O)c2cc(-c3ncnc4cc(N5CCOCC5)ccc34)c(F)cc2Cl)nn1 + CC(CO)NC(=O)c1cc(-c2ccc(Cl)cc2)nn(-c2cnn(C)c2)c1=O | 88.9

Hey, 521955-158-R2-J5-PDC complex spheroid growth data for COc1cc(C2c3cc4c(cc3C(OC3OC5COC(C)OC5C(O)C3O)C3COC(=O)C23)OCO4)cc(OC)c1O (configuration not stated) + CC(CO)NC(=O)c1cc(-c2ccc(Cl)cc2)nn(-c2cnn(C)c2)c1=O : viability, T/C came out at 71.4

521955-158-R2-J5-PDC complex spheroid growth assay, molecule Nc1ncn(C2CC(O)C(CO)O2)c(=O)n1 (configuration not stated) + Cc1ccccc1N=Nc1ccc(NC(=O)c2ccnn2C)c(C)c1 , recorded viability, T/C = 127

521955-158-R2-J5-PDC complex spheroid growth assay, molecule Cn1ncnc1C1c2n[nH]c(=O)c3cc(F)cc(c23)NC1c1ccc(F)cc1 (configuration not stated) + Cc1cncc(-c2nc(NCCc3c[nH]c4ccccc34)c3ncn(C(C)C)c3n2)c1 , recorded viability, T/C = 104

Summary line: CC[C@@]1(O)C(=O)OCc2c1cc1n(c2=O)Cc2cc3c(CN(C)C)c(O)ccc3nc2-1 + CC(CO)NC(=O)c1cc(-c2ccc(Cl)cc2)nn(-c2cnn(C)c2)c1=O , 521955-158-R2-J5-PDC complex spheroid growth, reported viability, T/C = 17.9

Field viability, T/C (521955-158-R2-J5-PDC complex spheroid growth), entry Nc1ncn(C2CC(O)C(CO)O2)c(=O)n1 (configuration not stated) + Cc1cncc(-c2nc(NCCc3c[nH]c4ccccc34)c3ncn(C(C)C)c3n2)c1 : 124

Case CC1COCCN1c1cc(C2(S(C)(=N)=O)CC2)nc(-c2ccnc3[nH]ccc23)n1 (configuration not stated) + Cc1cncc(-c2nc(NCCc3c[nH]c4ccccc34)c3ncn(C(C)C)c3n2)c1 , 521955-158-R2-J5-PDC complex spheroid growth, viability, T/C recorded as 132

Let me check: O=C(C=Cc1cccc(S(=O)(=O)Nc2ccccc2)c1)NO + CC(CO)NC(=O)c1cc(-c2ccc(Cl)cc2)nn(-c2cnn(C)c2)c1=O , system 521955-158-R2-J5-PDC complex spheroid growth, measured viability, T/C is 90.6

* * *

System: 521955-158-R2-J5-PDC complex spheroid growth
Procedure text: Anticancer human tumor 521955-158-R2-J5-PDC cell line growth inhibition [AhR];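 further: spheroids mix tumor cells with HUVEC endothelium and human MSC stroma; luminescence taken as viability surrogate after a week of drug exposure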
Applied conditions: second compound 3.16 µM; first compound 10 µM; stronger effect = lower value
Please assign false (0) whenever viability, T/C is at or above 70%, and true (1) whenever it is below.

Worked examples, 5 compounds total:
NS(=O)(=O)OCC1CC(n2ccc3c(NC4CCc5ccccc54)ncnc32)CC1O (configuration not stated) + Cc1cncc(-c2nc(NCCc3c[nH]c4ccccc34)c3ncn(C(C)C)c3n2)c1 | true (1)
Nc1ccccc1NC(=O)c1ccc(CNC(=O)OCc2cccnc2)cc1 + CC(CO)NC(=O)c1cc(-c2ccc(Cl)cc2)nn(-c2cnn(C)c2)c1=O | true (1)
Nc1ccccc1NC(=O)c1ccc(CNC(=O)OCc2cccnc2)cc1 + Cc1ccccc1N=Nc1ccc(NC(=O)c2ccnn2C)c(C)c1 | true (1)
CC(C)c1c(-c2ccccc2)nc2c(C#N)c[nH]n2c1=O + Cc1ccccc1N=Nc1ccc(NC(=O)c2ccnn2C)c(C)c1 | false (0)
O=C(c1cc(Cc2n[nH]c(=O)c3ccccc23)ccc1F)N1CCN(C(=O)C2CC2)CC1 + Cc1ccccc1N=Nc1ccc(NC(=O)c2ccnn2C)c(C)c1 | false (0)

Item CC1(C)CCC(CN2CCN(c3ccc(C(=O)NS(=O)(=O)c4ccc(NCC5CCOCC5)c([N+](=O)[O-])c4)c(Oc4cnc5[nH]ccc5c4)c3)CC2)=C(c2ccc(Cl)cc2)C1 + CC(CO)NC(=O)c1cc(-c2ccc(Cl)cc2)nn(-c2cnn(C)c2)c1=O : viability, T/C beneath 70%, strictly?
true (1)

Just wondering, is viability, T/C of CC1(C)CCC(CN2CCN(c3ccc(C(=O)NS(=O)(=O)c4ccc(NCC5CCOCC5)c([N+](=O)[O-])c4)c(Oc4cnc5[nH]ccc5c4)c3)CC2)=C(c2ccc(Cl)cc2)C1 + Cc1ccccc1N=Nc1ccc(NC(=O)c2ccnn2C)c(C)c1 below 70%?
false (0)

* * *

Test system: 521955-158-R2-J5-PDC complex spheroid growth
Procedure text: Anticancer human tumor 521955-158-R2-J5-PDC cell line growth inhibition [AhR];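 further: spheroids mix tumor cells with HUVEC endothelium and human MSC stroma; luminescence taken as viability surrogate after a week of drug exposure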
Applied conditions: second compound 0.1 µM; first compound 0.0316 µM; stronger effect = lower value
Reported endpoint: viability, T/C (%)
Report the figure in % without appending any unit label.

Cn1ncnc1C1c2n[nH]c(=O)c3cc(F)cc(c23)NC1c1ccc(F)cc1 (stereo unspecified) + CC(CO)NC(=O)c1cc(-c2ccc(Cl)cc2)nn(-c2cnn(C)c2)c1=O | 105
CC[C@@]1(O)C(=O)OCc2c1cc1n(c2=O)Cc2cc3c(CN(C)C)c(O)ccc3nc2-1 + Cc1ccccc1N=Nc1ccc(NC(=O)c2ccnn2C)c(C)c1 | 45.7
CC(C)c1c(-c2ccccc2)nc2c(C#N)c[nH]n2c1=O + Cc1cncc(-c2nc(NCCc3c[nH]c4ccccc34)c3ncn(C(C)C)c3n2)c1 | 96.9
Nc1ncn(C2CC(O)C(CO)O2)c(=O)n1 (stereo unspecified) + Cc1cncc(-c2nc(NCCc3c[nH]c4ccccc34)c3ncn(C(C)C)c3n2)c1 | 101
Nc1ccn(C2OC(CO)C(O)C2(F)F)c(=O)n1 (stereo unspecified) + CC(CO)NC(=O)c1cc(-c2ccc(Cl)cc2)nn(-c2cnn(C)c2)c1=O | 59.8

# input for lookup
Data point: O=C(C=Cc1cccc(S(=O)(=O)Nc2ccccc2)c1)NO + Cc1ccccc1N=Nc1ccc(NC(=O)c2ccnn2C)c(C)c1 ; viability, T/C = 95.4

* * *

Consider the following compounds and their measured viability, T/C readings.
System: 521955-158-R2-J5-PDC complex spheroid growth
Procedure text: Anticancer human tumor 521955-158-R2-J5-PDC cell line growth inhibition [AhR];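 further: spheroids mix tumor cells with HUVEC endothelium and human MSC stroma; luminescence taken as viability surrogate after a week of drug exposure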
Applied conditions: second compound 3.16 µM; first compound 0.003 µM; stronger effect = lower value
Only the number, expressed in %, is required.

Nc1ncn(C2CC(O)C(CO)S2)c(=O)n1 (stereo unspecified) + Cc1cncc(-c2nc(NCCc3c[nH]c4ccccc34)c3ncn(C(C)C)c3n2)c1 | 129

Recorded viability, T/C (compound CC(C)CC(NC(=O)C(Cc1ccccc1)NC(=O)c1cnccn1)B(O)O (stereo unspecified) + Cc1cncc(-c2nc(NCCc3c[nH]c4ccccc34)c3ncn(C(C)C)c3n2)c1 ): 127

Record Nc1ncn(C2CC(O)C(CO)S2)c(=O)n1 (stereo unspecified) + CC(CO)NC(=O)c1cc(-c2ccc(Cl)cc2)nn(-c2cnn(C)c2)c1=O , field viability, T/C: 116

Reported viability, T/C ( CCc1c2c(nc3ccc(O)cc13)-c1cc3c(c(=O)n1C2)COC(=O)[C@]3(O)CC + Cc1ccccc1N=Nc1ccc(NC(=O)c2ccnn2C)c(C)c1 ) = 78.3

Kindly note the recorded viability, T/C for CC(C)CC(NC(=O)C(Cc1ccccc1)NC(=O)c1cnccn1)B(O)O (stereo unspecified) + CC(CO)NC(=O)c1cc(-c2ccc(Cl)cc2)nn(-c2cnn(C)c2)c1=O , which is 81.6

Data point: CCc1c2c(nc3ccc(O)cc13)-c1cc3c(c(=O)n1C2)COC(=O)[C@]3(O)CC + Cc1cncc(-c2nc(NCCc3c[nH]c4ccccc34)c3ncn(C(C)C)c3n2)c1 ; viability, T/C = 58.7

* * *

Tested on: 521955-158-R2-J5-PDC complex spheroid growth
Procedure text: Anticancer human tumor 521955-158-R2-J5-PDC cell line growth inhibition [AhR];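 further: spheroids mix tumor cells with HUVEC endothelium and human MSC stroma; luminescence taken as viability surrogate after a week of drug exposure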
Applied conditions: second compound 0.1 µM; first compound 0.0316 µM; stronger effect = lower value
viability, T/C overview
Give just the numeric value; % need not be written.

Some compounds with recorded viability, T/C:
CC[C@@]1(O)C(=O)OCc2c1cc1n(c2=O)Cc2cc3c(CN(C)C)c(O)ccc3nc2-1 + CC(CO)NC(=O)c1cc(-c2ccc(Cl)cc2)nn(-c2cnn(C)c2)c1=O | 51.8
Cn1ncnc1C1c2n[nH]c(=O)c3cc(F)cc(c23)NC1c1ccc(F)cc1 (stereo not drawn) + Cc1ccccc1N=Nc1ccc(NC(=O)c2ccnn2C)c(C)c1 | 105

According to the records, this compound COc1cc(C2c3cc4c(cc3C(OC3OC5COC(C)OC5C(O)C3O)C3COC(=O)C23)OCO4)cc(OC)c1O (stereo not drawn) + Cc1cncc(-c2nc(NCCc3c[nH]c4ccccc34)c3ncn(C(C)C)c3n2)c1 displays viability, T/C of 102
